- Test system: HCV replicons (HCV RNA replication) in Huh-7 luc/neo cells
- Protocol: Stable replicon cell reporter assay (Huh-Luc, luciferase)
- Format: cell-based
- Condition: Hepatitis C virus, 72 h; Huh-Luc (Huh-7 luc/neo) cells, HCV type 1b NS3-NS5B replicon, luciferase readout, three days incubation
- Description: The compounds of the present invention were examined for activity in the inhibition of HCV RNA replication in a cellular assay. […] The cellular assay was based on a bicistronic expression construct, as described by Lohmann et al. (1999) Science vol. 285 pp. 110-113 with modifications described by Krieger et al. (2001) Journal of Virology 75: 4614-4624, in a multi-target screening strategy. In essence, the method was as follows. […]
pEC50: −log10 of the molar value.
Entry flag: true (1) if pEC50 reaches 6; false (0) if it does not.

Here are 2 molecules together with their reported answers.
| Molecule | Measurement target | Label value |
| --- | --- | --- |
| CC1CCc2nc(-c3cc(Cl)ccc3F)nc(Nc3ccncc3C(N)=O)c21 (centres unmarked) [Compound 46] | HCV replicons (HCV RNA replication) in Huh-7 luc/neo cells | false (0) |
| Cc1cnccc1Nc1nc(-c2cc(Cl)ccc2F)nn2cccc12 [Compound 80] | HCV replicons (HCV RNA replication) in Huh-7 luc/neo cells | false (0) |

Incoming: Please tell me: is the molecule Cc1noc2nc(-c3cc(Cl)ccc3F)nc(Nc3ccncc3)c12 [Compound 8] at or over 6 in terms of pEC50?
Outgoing: true (1)

Incoming: Please tell me: is the molecule NNC(=O)c1cnccc1Nc1nc(-c2cc(Cl)ccc2F)nc2c1CCC2 [Compound 58] at or over 6 in terms of pEC50?
Outgoing: false (0)

Incoming: Please tell me: is the molecule NC(=O)c1cnccc1Nc1nc(-c2cc(Cl)ccc2F)nc2c1CCC2 [Compound 21] at or over 6 in terms of pEC50?
Outgoing: true (1)

---

Measured EC50, listed per entry.
- Test system: HCV replicons (HCV RNA replication) in Huh-7 luc/neo cells
- Protocol: Stable replicon cell reporter assay (Huh-Luc, luciferase)
- Assay type: cell-based
- Condition: Hepatitis C virus, 72 h; Huh-Luc (Huh-7 luc/neo) cells, HCV type 1b NS3-NS5B replicon, luciferase readout, three days incubation
Expressed in nM, but write only the number.

| Compound | Measurement target | EC50, nM |
| --- | --- | --- |
| CCN(CC)CCNC(=O)c1cnccc1Nc1nc(-c2cc(Cl)ccc2F)nc2c1CCCC2 | HCV replicons (HCV RNA replication) in Huh-7 luc/neo cells | 2000 |
| Cc1cnccc1Nc1nc(-c2cc(Cl)ccc2F)nc2c1CCC2 | HCV replicons (HCV RNA replication) in Huh-7 luc/neo cells | 700 |
| C[C@H](O)CNC(=O)c1cnccc1Nc1nc(-c2cc(Cl)ccc2F)nc2c1CCCC2 | HCV replicons (HCV RNA replication) in Huh-7 luc/neo cells | 24000 |
| CNC(=O)c1cnccc1Nc1nc(-c2cc(Cl)ccc2F)nc2c1CCCC2 | HCV replicons (HCV RNA replication) in Huh-7 luc/neo cells | 7300 |

Incoming: Need EC50 of CNC(=O)c1cnccc1Nc1nc(-c2cc(Cl)ccc2F)nc2c1CCC2 , thanks.
Outgoing: 1500

Incoming: Need EC50 of CC1CCc2nc(-c3cc(Cl)ccc3F)nc(Nc3ccncc3C(=O)O)c21 (stereo not drawn) , thanks.
Outgoing: 13100

Incoming: Need EC50 of CC1(C)Cc2nc(-c3cc(Cl)ccc3F)nc(Nc3ccncc3C(N)=O)c2C1 , thanks.
Outgoing: 800

Incoming: Need EC50 of CN(C)CCCNC(=O)c1cnccc1Nc1nc(-c2cc(Cl)ccc2F)nc2c1CCC2 , thanks.
Outgoing: 1800

Incoming: Need EC50 of CNC(=O)c1cnccc1Nc1nc(-c2cc(Cl)ccc2F)nc2c1C(C)CC2 (stereo not drawn) , thanks.
Outgoing: 27700

The measured values listed here are drawn from patent US7977342B2.
